Assayed system: D(2) dopamine receptor (Homo sapiens, UniProt P14416)
Sequence (P14416 whole entry): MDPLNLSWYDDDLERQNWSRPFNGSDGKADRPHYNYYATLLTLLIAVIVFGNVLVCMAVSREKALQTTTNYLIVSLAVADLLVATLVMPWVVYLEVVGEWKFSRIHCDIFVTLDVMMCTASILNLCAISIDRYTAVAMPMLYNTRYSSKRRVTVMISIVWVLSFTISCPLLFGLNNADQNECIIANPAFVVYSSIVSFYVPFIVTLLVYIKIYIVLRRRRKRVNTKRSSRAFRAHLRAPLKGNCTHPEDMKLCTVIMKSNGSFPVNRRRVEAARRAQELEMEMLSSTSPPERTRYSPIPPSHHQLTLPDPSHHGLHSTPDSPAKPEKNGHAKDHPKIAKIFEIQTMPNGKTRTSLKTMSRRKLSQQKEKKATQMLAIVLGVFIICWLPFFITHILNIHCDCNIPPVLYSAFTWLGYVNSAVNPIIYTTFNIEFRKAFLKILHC
Procedure details: Binding affinity against Dopamine receptor D2 using [3H]spiroperidol as radioligand
Endpoint name: pKi
Lab note: report pKi as minus log10 of the concentration in molar units, number only.

Report pKi for COc1cccc2c1CC[C@H]1CN(CCn3c(=O)[nH]c4c(sc5cccnc54)c3=O)C[C@@H]21 please. 7.71

* * *

Target chain: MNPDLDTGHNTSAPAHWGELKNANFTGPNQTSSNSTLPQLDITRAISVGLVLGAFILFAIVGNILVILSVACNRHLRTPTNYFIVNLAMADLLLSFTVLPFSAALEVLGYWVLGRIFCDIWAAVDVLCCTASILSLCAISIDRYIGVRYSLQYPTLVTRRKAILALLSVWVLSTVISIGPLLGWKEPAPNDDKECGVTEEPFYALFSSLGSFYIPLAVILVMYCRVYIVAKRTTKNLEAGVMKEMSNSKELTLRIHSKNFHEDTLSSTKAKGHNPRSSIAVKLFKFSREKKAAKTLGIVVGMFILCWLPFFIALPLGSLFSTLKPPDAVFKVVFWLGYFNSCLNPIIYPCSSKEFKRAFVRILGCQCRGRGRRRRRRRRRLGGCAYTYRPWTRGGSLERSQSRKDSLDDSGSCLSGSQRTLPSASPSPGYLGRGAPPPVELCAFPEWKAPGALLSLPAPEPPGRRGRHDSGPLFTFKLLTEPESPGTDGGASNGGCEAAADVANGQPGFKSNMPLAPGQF
Endpoint name: Ki (nM)
Field: numeric (nM). Do not append units.

Report Ki for CCOc1ccccc1OCCN[C@H](C)Cc1ccc(OC)c(S(N)(=O)=O)c1 please. 0.61

* * *

Assayed system: D(1A) dopamine receptor (Mus musculus, UniProt Q61616)
Sequence (Q61616 whole entry): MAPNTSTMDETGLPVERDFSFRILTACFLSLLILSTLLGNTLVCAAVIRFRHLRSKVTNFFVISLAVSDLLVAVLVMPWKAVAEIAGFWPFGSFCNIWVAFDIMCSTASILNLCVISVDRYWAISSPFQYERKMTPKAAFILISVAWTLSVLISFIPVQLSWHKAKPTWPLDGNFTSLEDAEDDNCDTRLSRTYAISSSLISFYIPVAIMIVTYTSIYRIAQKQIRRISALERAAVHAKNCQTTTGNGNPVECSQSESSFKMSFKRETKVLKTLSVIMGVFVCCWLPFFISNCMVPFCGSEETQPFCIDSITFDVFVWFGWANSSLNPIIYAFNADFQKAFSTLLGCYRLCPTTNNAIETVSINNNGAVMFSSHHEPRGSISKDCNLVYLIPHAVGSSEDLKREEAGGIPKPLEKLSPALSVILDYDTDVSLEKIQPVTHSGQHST
Procedure details: Binding affinity against Dopamine receptor D1 using [3H]SCH-23390 as radioligand
Endpoint name: Ki (µM)
Field: numeric (µM). Do not append units.

Report Ki for COc1cccc2c1CC[C@H]1CN(CCn3c(=O)[nH]c4c(sc5cccnc54)c3=O)C[C@@H]21 please. 0.717

* * *

Endpoint name: pKi
Lab note: report pKi as minus log10 of the concentration in molar units, number only.

Could you share what pKi was measured for COc1cc2nc(N3CCN(C(=O)C4CCCO4)CC3)nc(N)c2cc1OC (stereo unspecified) , tested on Alpha-1D adrenergic receptor (Homo sapiens, UniProt P25100)? 9.07

* * *

Assayed system: Alpha-2B adrenergic receptor (Rattus norvegicus, UniProt P19328)
Sequence (P19328 whole entry): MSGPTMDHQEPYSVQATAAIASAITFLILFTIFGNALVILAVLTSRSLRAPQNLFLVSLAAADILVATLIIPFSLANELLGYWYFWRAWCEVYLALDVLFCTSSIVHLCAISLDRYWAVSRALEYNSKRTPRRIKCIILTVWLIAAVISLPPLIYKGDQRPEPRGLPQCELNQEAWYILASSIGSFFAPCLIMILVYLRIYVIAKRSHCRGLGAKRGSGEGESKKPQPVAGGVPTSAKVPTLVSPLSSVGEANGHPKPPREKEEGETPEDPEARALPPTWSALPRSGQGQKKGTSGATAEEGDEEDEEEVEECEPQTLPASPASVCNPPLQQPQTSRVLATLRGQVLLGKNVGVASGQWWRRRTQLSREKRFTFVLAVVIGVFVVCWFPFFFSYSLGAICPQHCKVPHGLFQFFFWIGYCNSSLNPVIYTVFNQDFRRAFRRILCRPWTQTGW
Endpoint name: Ki (nM)
Field: numeric (nM). Do not append units.

Report Ki for COc1cc2nc(N3CCN(C(=O)C4CCCO4)CC3)nc(N)c2cc1OC (stereo unspecified) please. 7.7
